Reference for the values: paper PMC7114206

Recorded TI, therapeutic index = CC50/IC50, one value per entry.
Test system: porcine epidemic diarrhea virus
Experiment: Antiviral activity against PEDV, CPE reduction by SRB method in Vero cells
Format: cell-based, porcine epidemic diarrhea virus (PEDV CV 777)
Give your answer as a number; write no unit.

O=c1c(O)c(-c2ccc(O)c(O)c2)oc2cc(O)cc(O)c12 [Quercetin]: 214.8
NC(=O)c1ncn([C@@H]2O[C@H](CO)[C@@H](O)[C@H]2O)n1 [Ribavirin]: 103.2

Moving on to another compound below.
Which value of TI, therapeutic index = CC50/IC50 has been reported for O=c1ccc2ccccc2o1 [Coumarin] in the records?
4.8
